System: Bacillus subtilis
assayExplanation: Antibacterial activity against Bacillus subtilis ATCC 23857 incubated for 18 hrs by broth microdilution method
Format: functional
testReadout: MIC

[
  {
    "givenSmiles": "NCCCC[C@@H](N)C(=O)N[C@H](Cc1c[nH]c2ccccc12)C(=O)N[C@H](CCCCN)C(=O)N[C@H](Cc1c[nH]c2ccccc12)C(=O)N[C@H](CCCCN)C(=O)N1CCC[C@@H]1C(=O)NCC(=O)N[C@H](CCCCN)C(=O)N[C@H](Cc1c[nH]c2ccccc12)C(=O)N[C@H](CCCCN)C(=O)N[C@H](Cc1c[nH]c2ccccc12)C(=O)N[C@H](CCCCN)C(N)=O",
    "result": "4 µM"
  },
  {
    "givenSmiles": "NCCCC[C@@H](N)C(=O)N[C@H](Cc1c[nH]c2ccccc12)C(=O)N[C@H](CCCCN)C(=O)N[C@H](Cc1c[nH]c2ccccc12)C(=O)N[C@H](CCCCN)C(=O)NCC(=O)NCC(=O)N[C@H](CCCCN)C(=O)N[C@H](Cc1c[nH]c2ccccc12)C(=O)N[C@H](CCCCN)C(=O)N[C@H](Cc1c[nH]c2ccccc12)C(=O)N[C@H](CCCCN)C(N)=O",
    "result": "2 µM"
  },
  {
    "givenSmiles": "NC[C@H]1O[C@H](O[C@H]2[C@H](O)[C@@H](O[C@H]3O[C@H](CO)[C@@H](O)[C@H](N)[C@H]3O)[C@H](N)C[C@@H]2N)[C@H](O)[C@@H](O)[C@@H]1O",
    "result": "< 1 µM"
  },
  {
    "givenSmiles": "NCCCC[C@@H](N)C(=O)N[C@H](Cc1c[nH]c2ccccc12)C(=O)N[C@H](CCCCN)C(=O)N[C@H](Cc1c[nH]c2ccccc12)C(=O)N[C@H](CCCCN)C(=O)N1CCC[C@@H]1C(=O)N1CCC[C@H]1C(=O)N[C@H](CCCCN)C(=O)N[C@H](Cc1c[nH]c2ccccc12)C(=O)N[C@H](CCCCN)C(=O)N[C@H](Cc1c[nH]c2ccccc12)C(=O)N[C@H](CCCCN)C(N)=O",
    "result": "4 µM"
  },
  {
    "givenSmiles": "NCCCC[C@@H](NC(=O)[C@H](N)Cc1c[nH]c2ccccc12)C(=O)N[C@H](Cc1c[nH]c2ccccc12)C(=O)N[C@H](CCCCN)C(=O)N[C@H](Cc1c[nH]c2ccccc12)C(=O)N[C@@H](CC(N)=O)C(=O)NCC(=O)N[C@H](Cc1c[nH]c2ccccc12)C(=O)N[C@H](CCCCN)C(=O)N[C@H](Cc1c[nH]c2ccccc12)C(=O)N[C@H](CCCCN)C(=O)N[C@H](Cc1c[nH]c2ccccc12)C(N)=O",
    "result": "2 µM"
  }
]

Origin of values: ChEMBL document CHEMBL5543109
